# System: P388 leukemia ip, CD2F1 mice, survival T/C
# ASSAY OVERVIEW: NCI In Vivo Anticancer Drug Screen. Data for tumor model P388 Leukemia (intraperitoneal) in CD2F1 (CDF1) mice
# DETAILS: endpoint: median survival time; dose: 50.0 mg/kg/injection; schedule: Q01DX005 (ip); vehicle: saline with Tween-80; higher = longer survival
Toxic doses and inconclusive results are not listed.
METRIC: T/C

Examples from the recorded data:
- COMPOUND: "CC1CC(O)C(=O)C2(C)C1CC1OC(=O)CC3C(C)C(=O)C(O)C2C13 (centres undefined)"
  T/C: "100 % of control"
- COMPOUND: "Cc1c(COC(=O)NC(C)C)c(COC(=O)NC(C)C)c2n1CS(=O)C2 (centres undefined)"
  T/C: "118 % of control"

# return T/C for each item in the list
1. Cc1ccc(S(=O)(=O)N=Nc2c(O)c3ccccc3c3ccccc23)cc1
2. COc1ccc(Cc2cc3c(cc2OCC(=O)Nc2ncccn2)OCO3)cc1

1. 103 % of control
2. 108 % of control

# return T/C for each item in the list
1. Nc1nc2[nH]c(=O)[nH]c2c(=O)[nH]1
2. COC(=O)c1c(-c2ccccc2)c(C=O)n(C)c1C
3. CC(C)c1nnc2cc3oc4ccccc4c3cc2c1N

1: 94 % of control; 2: 99 % of control; 3: 106 % of control
